- ASSAY TEXT: Pharmacokinetic study, IV administration in male CD-1 mice
- Type: in vivo
- APPLIED CONDITIONS: male, CD-1, mouse, plasma, iv, 2 mg/kg, Mean
MEASURED PARAMETER: concentration at 8 h (ng/mL)
Report as a plain number; the unit ng/mL is understood.

1) COc1ccc(-c2cccc(F)c2)cc1Nc1ncnc2[nH]nc(-c3cc[nH]n3)c12 [8168B]
8.35

QUERY: Form field: reported concentration at 8 h of COc1ccc(-c2ccc(F)cc2)cc1Nc1ncnc2[nH]nc(-c3cc[nH]n3)c12 [8168C]
RESULT: 2.97

* * *

- TGT: Axl+ Ba/F3 cells (Homo sapiens)
- ASSAY TEXT: Ba/F3 proliferation assay, Axl+
- Format: cell-based
- APPLIED CONDITIONS: Tables 7 and 8; read-out: Ba/F3 line IC50, Axl+
MEASURED PARAMETER: GI50 (nM)
Report as a plain number; the unit nM is understood.

1. COc1ccc(-c2ccccc2)cc1Nc1ncnc2[nH]nc(-c3ccco3)c12 [Cmpd 45A]
1210

Next compound, please.
QUERY: Report GI50 for COc1ccc(-c2ccccc2)cc1Nc1ncnc2[nH]nc(-c3cc[nH]n3)c12 [8-096] tested on Axl+ Ba/F3 cells (Homo sapiens).
RESULT: 501

* * *

- ASSAY TEXT: Pharmacokinetic study, IV administration in male CD-1 mice
- Format: in vivo
- APPLIED CONDITIONS: male, CD-1, mouse, plasma, iv, 2 mg/kg, Mean
Entries and their concentration at 0.08 h values follow.
Report as a plain number; the unit µg/mL is understood.

1. COc1ccc(-c2ccc(F)cc2)cc1Nc1ncnc2[nH]nc(-c3cc[nH]n3)c12 [8168C]
0.638

QUERY: Form field: reported concentration at 0.08 h of COc1ccc(-c2cccc(F)c2)cc1Nc1ncnc2[nH]nc(-c3cc[nH]n3)c12 [8168B]
RESULT: 0.0589

* * *

- Tested on: HER2+/2VE Ba/F3 line
- ASSAY TEXT: Ba/F3 proliferation assay, HER2+/2VE
- Assay type: cell-based
- APPLIED CONDITIONS: Tables 7 and 8
MEASURED PARAMETER: IC50 (nM)
Report as a plain number; the unit nM is understood.

QUERY: Form field: reported IC50 of CCOc1ccc(-c2ccccc2)cc1Nc1ncnc2[nH]cc(-c3cc[nH]n3)c12
RESULT: 217

* * *

- TGT: 2YF/3wt + NRG Ba/F3 cells (HER2YF/HER3wt) (Homo sapiens, UniProt P04626, Y1005F/Y1023F/Y1112F/Y1127F/Y1139F/Y1196F/Y1221F/Y1222F/Y1248F, cells depend on it)
- Sequence (P04626 whole entry Y1005F/Y1023F/Y1112F/Y1127F/Y1139F/Y1196F/Y1221F/Y1222F/Y1248F): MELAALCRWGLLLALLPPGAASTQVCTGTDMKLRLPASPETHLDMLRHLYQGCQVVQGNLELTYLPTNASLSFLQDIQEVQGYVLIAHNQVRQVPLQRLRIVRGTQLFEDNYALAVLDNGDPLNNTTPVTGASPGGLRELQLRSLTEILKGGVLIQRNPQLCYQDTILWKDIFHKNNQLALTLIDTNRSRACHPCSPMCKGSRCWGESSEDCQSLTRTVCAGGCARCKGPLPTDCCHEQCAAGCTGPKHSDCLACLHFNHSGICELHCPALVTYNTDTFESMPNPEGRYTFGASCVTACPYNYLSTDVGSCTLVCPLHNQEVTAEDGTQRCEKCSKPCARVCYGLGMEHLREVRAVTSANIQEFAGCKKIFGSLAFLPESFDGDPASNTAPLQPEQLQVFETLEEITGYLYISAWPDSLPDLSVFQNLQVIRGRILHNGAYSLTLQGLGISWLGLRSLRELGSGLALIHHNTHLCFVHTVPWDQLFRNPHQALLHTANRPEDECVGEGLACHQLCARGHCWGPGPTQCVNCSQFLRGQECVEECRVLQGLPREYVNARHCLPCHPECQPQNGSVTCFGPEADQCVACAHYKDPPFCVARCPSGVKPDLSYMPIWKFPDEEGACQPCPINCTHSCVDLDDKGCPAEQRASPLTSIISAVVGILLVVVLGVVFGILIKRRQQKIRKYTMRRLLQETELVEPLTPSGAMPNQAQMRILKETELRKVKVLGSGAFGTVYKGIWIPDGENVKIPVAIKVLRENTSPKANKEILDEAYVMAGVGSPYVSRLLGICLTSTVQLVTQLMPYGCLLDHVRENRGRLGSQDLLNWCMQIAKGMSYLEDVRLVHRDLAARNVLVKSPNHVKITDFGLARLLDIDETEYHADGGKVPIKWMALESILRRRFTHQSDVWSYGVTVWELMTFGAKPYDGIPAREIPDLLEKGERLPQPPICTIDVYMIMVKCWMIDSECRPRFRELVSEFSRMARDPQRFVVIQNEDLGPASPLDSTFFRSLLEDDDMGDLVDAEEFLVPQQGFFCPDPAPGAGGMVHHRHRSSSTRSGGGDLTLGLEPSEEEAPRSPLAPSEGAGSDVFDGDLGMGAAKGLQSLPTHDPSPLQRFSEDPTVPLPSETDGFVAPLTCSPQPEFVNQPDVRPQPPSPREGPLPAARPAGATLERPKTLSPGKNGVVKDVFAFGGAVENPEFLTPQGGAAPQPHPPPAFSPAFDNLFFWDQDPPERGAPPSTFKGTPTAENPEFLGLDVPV
- ASSAY TEXT: Ba/F3 proliferation assay, 2YF/3wt + NRG
- Assay type: cell-based
- APPLIED CONDITIONS: Tables 7 and 8; read-out: Ba/F3 line IC50, HER2YF/HER3 + NRG
- Source text: Ba/F3 cells are normally dependent on IL-3 signaling for their proliferation and survival, but can be made dependent on introduced oncogenic signals. We sequentially selected transduced Ba/F3 cells for populations stably expressing HER3 and then HER2. To ensure that all of the proliferative signal could be attributed to HER2/HER3 heterodimers, rather than HER2 homodimers, the 9 C-terminal tyrosines in HER2 were mutated to phenylalanine (HER2YF). […]
MEASURED PARAMETER: GI50 (nM)
Report as a plain number; the unit nM is understood.

1) COc1ccc(-c2ccccc2)cc1Nc1ncnc2[nH]nc(-c3ccsc3)c12 [Cmpd 191F]
376
2) COc1ccc(-c2sccc2C)cc1Nc1ncnc2[nH]nc(-c3ccco3)c12 [Cmpd 66B]
31
3) CCOc1ccc(-c2ccccc2)cc1Nc1ncnc2[nH]cc(-c3cc[nH]n3)c12
29

QUERY: Form field: reported GI50 of COc1ccc(-c2ccccc2)cc1Nc1ncnc2[nH]cc(-c3ccn(C)n3)c12
RESULT: 5

QUERY: Form field: reported GI50 of COc1ccc(-c2ccccc2)cc1Nc1nc(N)nc2[nH]nc(-c3ccco3)c12
RESULT: 4

* * *

- ASSAY TEXT: Pharmacokinetic study, IP administration in male CD-1 mice
- Assay type: in vivo
- APPLIED CONDITIONS: male, CD-1, mouse, plasma, ip, 2 mg/kg, Mean, read-out: AUC0-inf
MEASURED PARAMETER: AUC0-inf (ng·h/mL)
Report as a plain number; the unit ng·h/mL is understood.

1. COc1ccc(-c2cccc(F)c2)cc1Nc1ncnc2[nH]nc(-c3cc[nH]n3)c12 [8168B]
177

QUERY: Form field: reported AUC0-inf of COc1ccc(-c2ccc(F)cc2)cc1Nc1ncnc2[nH]nc(-c3cc[nH]n3)c12 [8168C]
RESULT: 205

* * *

- ASSAY TEXT: Pharmacokinetic study, IV administration in male CD-1 mice
- Format: in vivo
- APPLIED CONDITIONS: male, CD-1, mouse, plasma, iv, 2 mg/kg, individual mice M1-M3
MEASURED PARAMETER: clearance (mL/min/kg)
Report as a plain number; the unit mL/min/kg is understood.

QUERY: Form field: reported clearance of COc1ccc(-c2ccc(F)cc2)cc1Nc1ncnc2[nH]nc(-c3cc[nH]n3)c12 [8168C]
RESULT: 66.7

* * *

Entries and their concentration at 3 h values follow.
- ASSAY TEXT: Pharmacokinetic study, IV administration in male CD-1 mice
- Format: in vivo
- APPLIED CONDITIONS: male, CD-1, mouse, plasma, iv, 2 mg/kg, individual mice M1-M3
Report as a plain number; the unit ng/mL is understood.

1) COc1ccc(-c2ccc(F)cc2)cc1Nc1ncnc2[nH]nc(-c3cc[nH]n3)c12 [8168C]
14.3

Next compound, please.
QUERY: Form field: reported concentration at 3 h of COc1ccc(-c2cccc(F)c2)cc1Nc1ncnc2[nH]nc(-c3cc[nH]n3)c12 [8168B]
RESULT: 6.96

* * *

- TGT: Axl+ Ba/F3 cells (Homo sapiens, UniProt P30530)
- Sequence (P30530 whole entry, change not shown): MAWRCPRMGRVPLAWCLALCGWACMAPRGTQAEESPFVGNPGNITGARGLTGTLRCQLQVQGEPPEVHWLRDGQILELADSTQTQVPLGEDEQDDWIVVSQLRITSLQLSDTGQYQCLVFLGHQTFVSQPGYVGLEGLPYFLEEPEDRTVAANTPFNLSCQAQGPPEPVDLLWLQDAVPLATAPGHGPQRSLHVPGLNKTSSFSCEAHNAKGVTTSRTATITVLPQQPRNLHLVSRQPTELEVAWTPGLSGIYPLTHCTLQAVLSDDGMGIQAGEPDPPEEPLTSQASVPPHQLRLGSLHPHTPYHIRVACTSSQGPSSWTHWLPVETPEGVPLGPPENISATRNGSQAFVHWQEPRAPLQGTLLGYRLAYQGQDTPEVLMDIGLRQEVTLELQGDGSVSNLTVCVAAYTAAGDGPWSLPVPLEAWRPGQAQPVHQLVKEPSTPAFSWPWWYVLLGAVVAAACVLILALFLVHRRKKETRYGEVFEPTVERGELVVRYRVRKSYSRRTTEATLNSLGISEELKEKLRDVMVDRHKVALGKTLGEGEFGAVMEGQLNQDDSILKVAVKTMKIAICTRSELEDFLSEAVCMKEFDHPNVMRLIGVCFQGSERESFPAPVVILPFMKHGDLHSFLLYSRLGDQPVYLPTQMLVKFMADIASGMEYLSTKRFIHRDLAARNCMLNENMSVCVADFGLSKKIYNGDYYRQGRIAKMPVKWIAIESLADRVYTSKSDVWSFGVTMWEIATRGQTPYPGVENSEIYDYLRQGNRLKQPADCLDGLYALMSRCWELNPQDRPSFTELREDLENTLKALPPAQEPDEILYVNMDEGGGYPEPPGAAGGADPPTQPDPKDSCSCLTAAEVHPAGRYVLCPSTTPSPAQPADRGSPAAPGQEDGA
- ASSAY TEXT: Ba/F3 proliferation assay, Axl+
- Format: cell-based
- APPLIED CONDITIONS: Tables 7 and 8; read-out: Ba/F3 line IC50, Axl+
MEASURED PARAMETER: GI50 (nM)
Report as a plain number; the unit nM is understood.

Below, 3 molecules whose answers are already recorded.
1) COc1ccc(-c2ccccc2)cc1Nc1ncnc2[nH]nc(-c3cccc(C(N)=O)c3)c12 [Cmpd 45D]
880
2) COc1ccc(-c2ccccc2)cc1Nc1ncnc2[nH]nc(-c3cccc(C(C)=O)c3)c12
257
3) COc1ccc(-c2ccccc2)cc1Nc1ncnc2[nH]nc(-c3ccsc3)c12 [Cmpd 191F]
2150

QUERY: Report GI50 for CN(C)c1ccc(-c2ccsc2)cc1Nc1ncnc2[nH]nc(-c3ccn(C)n3)c12 [104B] tested on Axl+ Ba/F3 cells (Homo sapiens, UniProt P30530).
RESULT: 1560

QUERY: Report GI50 for COc1ccc(-c2ccccc2)cc1Nc1ncnc2[nH]nc(-c3ccn(C)n3)c12 tested on Axl+ Ba/F3 cells (Homo sapiens, UniProt P30530).
RESULT: 612

QUERY: Report GI50 for CN(C)c1ccc(-c2ccsc2)cc1Nc1ncnc2[nH]nc(-c3cc[nH]n3)c12 [104A] tested on Axl+ Ba/F3 cells (Homo sapiens, UniProt P30530).
RESULT: 844

* * *

- ASSAY TEXT: Pharmacokinetic study, IP administration in male CD-1 mice
- Format: in vivo
- APPLIED CONDITIONS: male, CD-1, mouse, plasma, ip, 2 mg/kg, individual mice M1-M3, read-out: Oral T½ (converted)
MEASURED PARAMETER: Half-life (T½) (min)
Report as a plain number; the unit min is understood.

QUERY: Form field: reported Half-life (T½) of COc1ccc(-c2cccc(F)c2)cc1Nc1ncnc2[nH]nc(-c3cc[nH]n3)c12 [8168B]
RESULT: 24

* * *

- ASSAY TEXT: Pharmacokinetic study, IP administration in male CD-1 mice
- Format: in vivo
- APPLIED CONDITIONS: male, CD-1, mouse, plasma, ip, 2 mg/kg, Mean, read-out: MRT0-last
MEASURED PARAMETER: MRT last (min)
Report as a plain number; the unit min is understood.

1. COc1ccc(-c2cccc(F)c2)cc1Nc1ncnc2[nH]nc(-c3cc[nH]n3)c12 [8168B]
46.8

QUERY: Form field: reported MRT last of COc1ccc(-c2ccc(F)cc2)cc1Nc1ncnc2[nH]nc(-c3cc[nH]n3)c12 [8168C]
RESULT: 44.4

* * *

- ASSAY TEXT: Pharmacokinetic study, IP administration in male CD-1 mice
- Assay type: in vivo
- APPLIED CONDITIONS: male, CD-1, mouse, plasma, ip, 2 mg/kg, Mean
Entries and their concentration at 1 h values follow.
Report as a plain number; the unit ng/mL is understood.

1. COc1ccc(-c2cccc(F)c2)cc1Nc1ncnc2[nH]nc(-c3cc[nH]n3)c12 [8168B]
82.3

Next molecule, please.
QUERY: Form field: reported concentration at 1 h of COc1ccc(-c2ccc(F)cc2)cc1Nc1ncnc2[nH]nc(-c3cc[nH]n3)c12 [8168C]
RESULT: 73.9

The reported measurements were obtained from patent US20190119284A1.
